Source: a melting point compilation (Tetko et al.; mined from patent text by program, amines drawn as free bases though some values may be those of a salt)

QUANTITY KIND: melting point

Look up melting point for this compound: O=C(OCC(Cl)(Cl)Cl)N1CCC(C2c3cccc4c3N(CC4)c3ccccc3N2C(=O)OCC(Cl)(Cl)Cl)CC1 (stereo not given)
202 to 205 °C

----------
Some molecules, each annotated with its measured melting point.

These recorded examples may help you get a feel for the data.
MOLECULE: CNc1nc2ccc(CCc3ccccn3)cc2s1
RECORDED VALUE: 118 to 120 °C
//
MOLECULE: CN(C)c1ccc(NC(=O)N(C[C@H]2CC[C@H](CN(C(=O)Nc3ccc(N(C)C)cc3)C3CCCC3)CC2)C2CCCC2)cc1
RECORDED VALUE: 162 to 165 °C
//
MOLECULE: CC(C)CCOc1ccc(S(=O)(=O)C2(C(=O)NO)CCN(Cc3ccccc3)CC2)cc1
RECORDED VALUE: 106 °C

Any idea what melting point was measured for `CN(C)CCSCc1c(CCN(C)C)[nH]c2ccccc12` ?
52 to 54 °C

# iterate: Cc1cccc(NC(=O)NC2N=C(C3CC3)c3cccc(C)c3N(CC(=O)N3CC4CCC(CC4)C3)C2=O)c1 (stereo not drawn)
172 to 174 °C

# iterate: `CN1C(=O)C(=CC(=O)O)SC1=Nc1ccc(Cl)c(Cl)c1`
225 to 226 °C

Moving on to `O=C(CS(=O)(=O)c1ccccc1)c1ccnc(Cl)c1`
124 to 126 °C

Another molecule: `CCOC(=O)c1ccc(N(C)C)nn1`
112 °C

How about this molecule: NC(=O)C1Cc2cc(F)ccc2N1 (stereo not drawn)
197 to 199 °C

Next molecule: CC(C)(C)C(NC(=O)c1ccccc1)Nc1c(Nc2cccnc2)c(=O)c1=O (stereo not drawn)
246 to 247 °C

Let us now turn to `Cc1ccccc1CN1CCC(n2c(C)c(-c3ccc(Cl)cc3)[nH]c2=O)CC1`
218 to 220 °C

Cc1ncccc1C(C#N)N1CCN(C(=O)CC(NC(=O)c2ccc(OCc3ccc4ccccc4n3)cc2)c2ccccc2)CC1 (stereo not drawn) ?
104 to 110 °C

Please do the same for `CN(CC#Cc1ccccc1)[C@H]1CC[C@H](c2ccc3[nH]c(=O)oc3c2)CC1` as well.
249 to 252 °C

And the next one, `CCOC(=O)CCNC(=O)Nc1cc(-c2ccc3cc(NS(C)(=O)=O)ccc3c2)c(OC)c(C(C)(C)C)c1` ?
> 300 °C

Same for `Cc1ccccc1-c1ccc2c(c1)c(C(=O)C(=O)O)cn2Cc1ccc(C(C)(C)C)cc1`
97 to 98 °C

----------
In this section, each of the compounds is paired with its reported melting point.

COMPOUND: CCOC(=O)CNC(=O)CN(C(=O)c1ccc(Cl)cc1)c1c(C)cccc1C
melting point: 127 to 129 °C
--
COMPOUND: CC(=O)NC(=C(C)C(=O)O)c1ccccc1
melting point: 190 °C

If you can, please state the reported melting point value of CCCCCCCCCCC(C(=O)CCCCO)P(=O)(c1ccccc1)c1ccccc1 (centres undefined) .
70 °C

Queued: CC1=CC2c3cccc4[nH]c(SC(C)C)c(c34)CC2N(C)C1 (centres undefined)
145 to 147 °C

Same for COCCCCCC=C(NC(=O)C1CC1(C)C)C(=O)O (centres undefined)
71 to 72 °C

Okay, and `Brc1cc(Br)c(COCc2cc(Br)c(Br)cc2Br)cc1Br` ?
162 to 164 °C

Queued: `Cc1cc(Oc2ccc(NC(=O)N3CCc4ccccc4CC3)cn2)cc(C)c1Cl`
208 to 209 °C

Follow-up entry: `OCC(=C(c1ccc(F)cc1)c1ccc(F)cc1)c1nnn(C(c2ccccc2)(c2ccccc2)c2ccccc2)n1`
176 to 178 °C

Okay, and `COc1ccc(C(=O)Nc2ccc(F)c(F)c2)cc1NS(=O)(=O)c1ccc(C#N)cc1` ?
228 to 230 °C

----------
Below, each entry is listed with its recorded melting point.

Take a look at these entries with their results.
COMPOUND: O=C(CCN1CCN(c2ccc3ccccc3n2)CC1)c1csc2ccccc12
melting point: 92 to 96 °C
//
COMPOUND: CC(=O)N1CCc2ccsc2C1=O
melting point: 92 °C
//
COMPOUND: COc1ccc2nc(Cl)cc(CC#N)c2c1
melting point: 182 to 184 °C
//
COMPOUND: O=C(NC(=O)c1cccnc1)NC1CCN(Cc2ccc3ncccc3c2)CC1
melting point: 196 to 198 °C
//
COMPOUND: NCC1CCc2c(O)cccc2C1 (stereo not given)
melting point: 183 to 192 °C

Please look up its melting point: `Oc1ccc(Nc2nc(NCc3ccco3)nc(Nc3ccc(Br)cc3)n2)cc1`
37 to 39 °C

Same again, this time with CCCN(CCC)C1Cc2cc3c(cc2C1)C(=O)N(Cc1ccc(C#N)cc1)C3 (stereo not given)
141 to 145 °C

Also, `COc1ccc(CCc2nnc(-c3ccc4occc4c3)o2)cc1` please.
127 to 128 °C

Try this compound next: CCOC(=O)CC(NC(=O)c1ccc(OC)cc1)C(=O)c1ccco1 (stereo not given)
104 to 106 °C

Would you mind doing `Cc1ccc2ccc(C)c(O)c2c1` as well?
124 to 125 °C

Try this compound too: COc1cccc2c1CN(c1c(F)cc3c(=O)c(C(=O)O)cn4c3c1OCC4C)C2 (stereo not given)
262 to 264 °C

----------
QUANTITY KIND: melting point

Which melting point value is on record for `COc1ccc(C(=[N+]=[N-])c2ccc(OC)cc2)cc1` ?
85 °C

Then what about the compound `ClCOc1ccc2ccccc2c1` ?
70 °C

Follow-up entry: `O=C1NC(=O)C2(CCCCC2)N1c1ccc(I)cc1`
249 to 251 °C

How about `O=c1c2scc(Br)c2ncn1O` ?
244 to 247 °C

Next compound: `c1ccc(C2=Nc3cccnc3Nc3ccccc32)cc1`
106 to 108 °C

----------
QUANTITY KIND: melting point

MOL SMILES: CCCCC(=O)Nc1nc2ccc(Cl)cc2nc1NC(=O)CCCC
QUANTITY KIND: melting point
RECORDED VALUE: 171 to 173 °C
--
MOL SMILES: CC(=O)NCCc1c[nH]c2ccc(OC(=O)Oc3ccc([N+](=O)[O-])cc3)cc12
QUANTITY KIND: melting point
RECORDED VALUE: 153 to 156 °C
--
MOL SMILES: Cc1ccc(C(=O)NCc2cccnc2)c(Nc2ccc3cn[nH]c3c2)n1
QUANTITY KIND: melting point
RECORDED VALUE: 170 to 172 °C
--
MOL SMILES: O=C(N[C@H]1CCCNC1=O)c1cc(F)ccc1F
QUANTITY KIND: melting point
RECORDED VALUE: 140 to 142 °C

# input for lookup
# input compound: `CCOC(=O)CC(=O)CC(=O)c1cccnc1` ; wanted: its melting point
187 to 189 °C

----------
QUANTITY KIND: melting point

COMPOUND: CC(=O)OC(CF)c1ccccc1S(N)(=O)=O (stereo not drawn)
RECORDED VALUE: 122 to 124 °C

COMPOUND: CC(C)Cn1cc(F)c(=O)[nH]c1=O
RECORDED VALUE: 173 to 174 °C

Tell me the measured melting point of `CC(C)(C)OC(=O)NCCCn1c2c(c3ccc(NCC(=O)O)cc3c1=O)C(=O)c1ccccc1-2` , please.
190 to 192 °C

Also `CCCCOc1c(CNC(=O)OC(C)(C)C)n(CC(C)C)c(=O)c2ccc(-c3ccco3)cc12` ?
157 to 158 °C

How about this compound: `COc1ccc(C(=O)c2cccc(C(=O)O)c2)cc1`
183 to 186 °C

Another compound to check: O=C1N(c2cc(Cl)cc(Cl)c2)C(=O)C2(Cc3ccc(-c4ccc([N+](=O)[O-])cc4)cc3)CCCN12 (stereo not drawn)
72 to 73 °C

Could you do the same for `CCCCOCCOc1ccc(-c2ccc3c(c2)C=C(C(=O)Nc2ccc(CN(C)C4CCOCC4)cc2)CCS3(=O)=O)cc1` , please?
194 to 196 °C

Request: `CCOc1ccc(C2=NN(C(=O)c3cccc([N+](=O)[O-])c3)CCC2)cc1OCC`
119 to 120 °C

Moving on to the next compound: `O=C(OCc1ccccc1)N1CCN(c2ccccc2)CC1`
49 to 51 °C

Cool, now `COCCNC(=O)c1cccc(-c2cccc3cc(Cc4cccc(C#N)c4)sc23)c1`
86 to 92 °C

----------
Listed below: melting point values for each entry.

Known results for compounds:
COMPOUND: CCOC(=O)C1CN(C(=O)c2ccccc2)CC1c1ccc(NC(=O)Cc2ccc(NC(=O)Nc3ccccc3C)c(OC)c2)cc1 (centres undefined)
melting point: 130 °C

COMPOUND: O=C1C2CCCN2S(=O)(=O)N1CSc1nnnn1-c1ccccc1 (centres undefined)
melting point: 99.5 to 100 °C

COMPOUND: COc1cc2ncnc(N3CCN(C(=O)Nc4ccc(S(C)(=O)=O)cc4)CC3)c2cc1OC
melting point: 266 to 269 °C

May I ask what melting point has been recorded for `c1ccc(COc2ccc3[nH]c(-c4ccc[nH]4)cc3c2)cc1` ?
178 to 182 °C

Repeat with `O=C(O)Cc1nn(Cc2ccc(Br)cc2F)c2ccccc12`
167 to 168 °C

Thanks! And `CNC(=O)/C(=N/OC)c1ccccc1COc1ncc(Cl)cc1C(F)(F)F` ?
105 to 106 °C

Same question, `COc1cc2c(cc1O)CCN(Cc1cc(OC)c(OC)c(OC)c1)C2` this time
170 to 171 °C

Please do the same for `CCCc1c(OCCCCCCc2ccc3cc(O)c(O)cc3c2)ccc(C(=O)O)c1O` as well.
154 to 158 °C

And then CCN(CC)c1ccc(N(c2ccc(N(C)C)cc2)C2(c3ccc(N(C)C)cc3Cl)OC(=O)c3ccccc32)cc1 (centres undefined) , what is it?
67 to 84 °C

Entry to check: `CN(C)C=Nc1ccc(-c2ncnn2-c2ccc(F)cc2)cc1`
159 to 161 °C

# repeat for `Cc1ccc(C(=O)Nc2cccc(C(F)(F)F)c2)cc1-c1ccc2scnc2c1`
200 to 202 °C

What about this compound? `O=c1[nH]c2c(Cc3nnn[nH]3)c3ccccc3n2c2ccccc12`
262 to 265 °C

Follow-up entry: CC(C)CC(NC(=O)Cc1ccc(NC(=O)Nc2ccccc2Cl)cc1)c1cc(CCC(=O)O)on1 (centres undefined)
143 to 145 °C
